Listed here are molecules together with their documented EC50.
systemName: human FXR (NR1H4) (Homo sapiens, UniProt Q96RI1)
Sequence (Q96RI1 1-486): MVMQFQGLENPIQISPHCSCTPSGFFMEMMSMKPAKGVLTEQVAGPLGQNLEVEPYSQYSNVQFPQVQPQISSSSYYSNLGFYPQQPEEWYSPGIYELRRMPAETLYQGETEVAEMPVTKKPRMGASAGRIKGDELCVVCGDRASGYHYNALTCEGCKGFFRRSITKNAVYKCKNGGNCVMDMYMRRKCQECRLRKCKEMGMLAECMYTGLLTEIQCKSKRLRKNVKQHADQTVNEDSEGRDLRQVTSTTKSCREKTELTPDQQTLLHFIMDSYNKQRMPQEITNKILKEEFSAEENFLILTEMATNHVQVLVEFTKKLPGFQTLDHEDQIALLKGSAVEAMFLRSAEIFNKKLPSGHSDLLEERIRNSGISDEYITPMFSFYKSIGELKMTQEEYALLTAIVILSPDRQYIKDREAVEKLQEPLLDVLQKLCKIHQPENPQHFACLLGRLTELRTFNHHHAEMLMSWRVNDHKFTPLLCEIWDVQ
experimentalProtocol: Human FXR (NR1H4) Assay: Gal4 promoter driven luciferase reporter transactivation in CHO cells (Indigo Bioscience kit IB00601)
Type: cell-based
cond: potency range, Human FXR (NR1H4) reporter assay in CHO cells; read-out: EC50

>>> result("CS(=O)(=O)NC(=O)c1cccc(NC(=O)N2C3CCC2CC(OCc2c(-c4ccccc4OC(F)(F)F)noc2C2CC2)C3)c1 (stereo not shown) [Example 262]")
"> 1000 nM"

-- ask What EC50 value was documented for this molecule, COC(=O)c1ccc(NC(=O)N2C3CCC2CC(OCc2c(-c4ccccc4OC(F)(F)F)noc2C2CC2)C3)nc1 (stereo not shown) [Example 764] ?
-- reply 100 to 1000 nM

-- ask What EC50 value was documented for this molecule, CS(=O)(=O)NC(=O)c1ccc(NC(=O)N2C3CCC2CC(OCc2c(-c4ccccc4OC(F)(F)F)noc2C2CC2)C3)cc1 (stereo not shown) [Example 752] ?
-- reply > 1000 nM

-- ask What EC50 value was documented for this molecule, O=C(Nc1cc(F)cc(F)c1)N1C2CCC1CC(OCc1c(-c3c(Cl)cccc3Cl)noc1C1CC1)C2 (stereo not shown) [Example 700] ?
-- reply < 10 nM

---

systemName: UniProt Q96RI1
experimentalProtocol: Human FXR (NR1H4) Assay: Gal4 promoter driven luciferase reporter transactivation in CHO cells (Indigo Bioscience kit IB00601)
Format: cell-based
cond: potency range, Human FXR (NR1H4) reporter assay in CHO cells; read-out: EC50
pEC50: −log10 of the molar value.
experimentalReadout: pEC50

Field: example entries. Status: answers known.
>>> result("O=C(Nc1cncc(-c2ccccc2)c1)N1C2CCC1CC(OCc1c(-c3c(Cl)cccc3Cl)noc1C1CC1)C2 (centres unmarked)")
"> 8.00"
>>> result("O=C(O)c1ccc(NC(=O)N2C3CCC2CC(OCc2c(-c4c(Cl)cccc4Cl)noc2C2CC2)C3)c(C2CC2)c1 (centres unmarked)")
"7.00 to 8.00"
>>> result("O=C(O)c1ccc(NC(=O)N2C3CCC2CC(OCc2c(-c4c(F)cccc4F)noc2C2CC2)C3)c(F)c1 (centres unmarked)")
"7.00 to 8.00"
>>> result("O=C(O)c1ccc(NC(=O)N2C3CCC2CC(OCc2c(-c4c(Cl)cccc4Cl)noc2C2CC2)C3)cc1-c1ccc(C(F)(F)F)nc1 (centres unmarked)")
"> 8.00"
>>> result("O=C(Nc1ccc(-c2ccccc2)cc1)N1C2CCC1CC(OCc1c(-c3c(Cl)cccc3Cl)noc1C1CC1)C2 (centres unmarked)")
"7.00 to 8.00"
>>> result("O=C(O)c1ccc(NC(=O)N2C3CCC2CC(OCc2c(C4CCC5(CC4)CC5)noc2C2CC2)C3)c(F)c1 (centres unmarked)")
"7.00 to 8.00"

-- ask What pEC50 value was documented for this compound, O=C(Nc1cccc(-c2nnn[nH]2)c1)N1C2CC[C@H]1CC(OCc1c(-c3c(Cl)cccc3Cl)noc1C1CC1)C2 (some centres unmarked) ?
-- reply 6.00 to 7.00

-- ask What pEC50 value was documented for this compound, O=C(Nc1cccc(C(F)(F)F)c1)N1C2CCC1CC(NCc1c(-c3ccccc3OC(F)(F)F)noc1C1CC1)C2 (centres unmarked) ?
-- reply 7.00 to 8.00

All values here come from patent US10597391B2.
